# Test system: A704 (Kidney Carcinoma);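 further: after 72 h of two-drug dosing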
# Procedure summary: Bliss excess, mean over the matrix (fraction); higher = more synergy
Experimental endpoint: Bliss excess
Give the figure by itself; no unit, no explanation.

Observe how each entry below is paired with its result.
# Compound, Measurement target, Experimental endpoint, Recorded measurement
data = [
    ("NC1(C(=O)N[C@@H](CCO)c2ccc(Cl)cc2)CCN(c2ncnc3[nH]ccc23)CC1 [Capivasertib] + CCN(CCO)CCCOc1ccc2c(Nc3cc(CC(=O)Nc4cccc(F)c4)[nH]n3)ncnc2c1 [AZD2811] (first compound max 10 µM, 7x7, partner max 1 µM)", "A704 (Kidney Carcinoma)", "Bliss excess", -0.0375),
    ("COc1cccc(OCCCN)c1-c1cc(Nc2cnc(C#N)cn2)n[nH]1 [Prexasertib] + C=CCn1c(=O)c2cnc(Nc3ccc(N4CCN(C)CC4)cc3)nc2n1-c1cccc(C(C)(C)O)n1 [AZD1775] (first compound max 1 µM, partner max 1 µM)", "A704 (Kidney Carcinoma)", "Bliss excess", 0.018),
]

Let's switch to this compound now.
The observed Bliss excess for CS(=O)(=O)CCNCc1ccc(-c2ccc3ncnc(Nc4ccc(OCc5cccc(F)c5)c(Cl)c4)c3c2)o1 [Lapatinib] + C[C@@H](Oc1cc(-c2cnn(C3CCNCC3)c2)cnc1N)c1c(Cl)ccc(F)c1Cl [Crizotinib] (first compound max 10 µM, 7x7, partner max 10 µM) when tested with A704 (Kidney Carcinoma) stands at -0.122
